biological target: von Hippel-Lindau disease tumor suppressor/SWI/SNF-related matrix-associated actin-dependent regulator of chromatin subfamily A member 2 (Homo sapiens, UniProt P51531+P40337); assay: PROTAC activity at VHL/C-terminal HiBiT fused SMARCA2 in human HeLa cells assessed as induction of SMARCA2 degradation by measuring maximal efficacy incubated for 24 hrs by Nano-Glo HiBiT analysis relative to control; format: cell-based
Sequence (P40337 whole entry, looked up, the tested form may be a part): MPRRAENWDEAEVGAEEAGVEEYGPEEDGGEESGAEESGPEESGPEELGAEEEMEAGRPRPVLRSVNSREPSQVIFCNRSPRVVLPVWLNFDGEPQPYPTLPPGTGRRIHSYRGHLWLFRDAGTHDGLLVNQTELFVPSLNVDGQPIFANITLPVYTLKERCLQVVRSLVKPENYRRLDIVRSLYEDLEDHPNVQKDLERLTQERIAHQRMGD
Sequence (P51531 whole entry, looked up, the tested form may be a part): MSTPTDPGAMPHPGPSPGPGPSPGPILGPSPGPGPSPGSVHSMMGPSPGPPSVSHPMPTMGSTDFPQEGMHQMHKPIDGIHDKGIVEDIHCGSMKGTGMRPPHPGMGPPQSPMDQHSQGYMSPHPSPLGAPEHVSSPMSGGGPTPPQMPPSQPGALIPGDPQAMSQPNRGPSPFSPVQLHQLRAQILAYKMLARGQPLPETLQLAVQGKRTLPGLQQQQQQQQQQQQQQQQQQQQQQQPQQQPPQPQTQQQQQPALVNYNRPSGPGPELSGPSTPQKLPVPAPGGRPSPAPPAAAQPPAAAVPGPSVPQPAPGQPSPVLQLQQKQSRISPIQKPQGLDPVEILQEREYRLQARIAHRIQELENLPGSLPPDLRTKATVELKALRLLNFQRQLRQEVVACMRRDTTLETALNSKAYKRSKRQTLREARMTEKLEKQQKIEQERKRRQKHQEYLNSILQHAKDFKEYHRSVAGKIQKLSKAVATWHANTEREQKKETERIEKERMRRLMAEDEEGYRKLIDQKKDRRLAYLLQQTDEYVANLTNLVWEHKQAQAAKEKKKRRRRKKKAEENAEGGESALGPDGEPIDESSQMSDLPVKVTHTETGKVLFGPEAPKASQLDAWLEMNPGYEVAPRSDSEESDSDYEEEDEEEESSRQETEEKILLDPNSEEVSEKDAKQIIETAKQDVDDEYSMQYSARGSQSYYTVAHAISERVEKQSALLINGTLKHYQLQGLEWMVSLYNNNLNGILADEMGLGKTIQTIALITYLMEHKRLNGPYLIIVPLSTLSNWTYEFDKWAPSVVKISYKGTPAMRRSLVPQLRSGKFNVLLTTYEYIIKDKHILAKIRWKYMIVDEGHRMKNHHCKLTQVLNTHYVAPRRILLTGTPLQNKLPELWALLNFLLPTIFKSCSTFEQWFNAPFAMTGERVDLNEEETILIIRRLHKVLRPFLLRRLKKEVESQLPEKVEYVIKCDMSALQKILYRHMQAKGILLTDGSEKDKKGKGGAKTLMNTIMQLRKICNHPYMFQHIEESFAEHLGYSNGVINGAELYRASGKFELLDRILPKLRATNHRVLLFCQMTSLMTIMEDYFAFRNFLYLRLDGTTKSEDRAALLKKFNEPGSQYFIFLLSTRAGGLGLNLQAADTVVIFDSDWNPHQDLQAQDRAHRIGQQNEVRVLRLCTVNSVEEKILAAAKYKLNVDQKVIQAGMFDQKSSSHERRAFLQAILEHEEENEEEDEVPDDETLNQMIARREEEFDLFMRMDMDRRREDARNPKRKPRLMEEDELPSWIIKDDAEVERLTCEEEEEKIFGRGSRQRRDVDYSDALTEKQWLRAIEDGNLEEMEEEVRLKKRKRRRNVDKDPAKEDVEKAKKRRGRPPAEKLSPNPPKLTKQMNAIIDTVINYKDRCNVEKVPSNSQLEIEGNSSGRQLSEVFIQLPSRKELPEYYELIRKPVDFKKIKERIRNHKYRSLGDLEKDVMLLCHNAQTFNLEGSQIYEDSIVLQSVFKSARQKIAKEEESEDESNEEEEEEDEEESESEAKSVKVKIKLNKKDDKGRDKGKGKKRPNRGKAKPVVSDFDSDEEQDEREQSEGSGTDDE
recorded metric: Emax (%)

molecule	Emax / %
Cc1ncsc1-c1ccc([C@H](C)NC(=O)[C@@H]2C[C@@H](O)CN2C(=O)[C@@H](NC(=O)[C@H]2CC[C@H](CN3CCC4(CCC(n5cc(-c6cc(-c7ccccc7O)nnc6N)cn5)CC4)CC3)CC2)C(C)(C)C)cc1	90
Cc1cc([C@H](C(=O)N2C[C@H](O)C[C@H]2C(=O)N[C@@H](CC(=O)NCCCCCCCCn2cc(-c3cc(-c4ccccc4O)nnc3N)cn2)c2ccc(-c3scnc3C)cc2)C(C)C)on1	91
Cc1ncsc1-c1ccc([C@H](C)NC(=O)[C@@H]2C[C@@H](O)CN2C(=O)[C@@H](NC(=O)CCCCn2cc(-c3cc(-c4ccccc4O)nnc3N)cn2)C(C)(C)C)cc1	85
Cc1ncsc1-c1ccc([C@H](C)NC(=O)[C@@H]2C[C@@H](O)CN2C(=O)[C@@H](NC(=O)CCCCCCCCCn2cc(-c3cc(-c4ccccc4O)nnc3N)cn2)C(C)(C)C)cc1	93
Cc1cc([C@H](C(=O)N2C[C@H](O)C[C@H]2C(=O)N[C@@H](CC(=O)NCCCCCCCn2cc(-c3cc(-c4ccccc4O)nnc3N)cn2)c2ccc(-c3scnc3C)cc2)C(C)C)on1	91

1: Cc1ncsc1-c1ccc([C@H](C)NC(=O)[C@@H]2C[C@@H](O)CN2C(=O)[C@@H](c2cc(N3CCC(CN4CCC(O[C@H]5C[C@H](Oc6cccc(CN7C8CCC7CN(c7cc(-c9ccccc9O)nnc7N)C8)c6)C5)CC4)CC3)no2)C(C)C)cc1
2: Cc1ncsc1-c1ccc([C@H](C)NC(=O)[C@@H]2C[C@@H](O)CN2C(=O)[C@@H](NC(=O)CCN2CCC(CCCn3cc(-c4cc(-c5ccccc5O)nnc4N)cn3)CC2)C(C)C)cc1
3: Cc1ncsc1-c1ccc([C@H](C)NC(=O)[C@@H]2C[C@@H](O)CN2C(=O)[C@@H](NC(=O)CCN2CCN(CCCn3cc(-c4cc(-c5ccccc5O)nnc4N)cn3)CC2)C(C)C)cc1
4: Cc1ncsc1-c1ccc([C@H](C)NC(=O)[C@@H]2C[C@@H](O)CN2C(=O)[C@@H](NC(=O)CCn2cc(-c3cc(-c4ccccc4O)nnc3N)cn2)C(C)(C)C)cc1
Ascending sort, Emax. Answer by listing the labels in the requested order.
2, 4, 3, 1
(2: 12%, 4: 19%, 3: 62%, 1: 96%)

* * *

test system: NCI-H1793; experiment: Antiproliferative activity against SMARCA4-deficient human NCI-H1793 cells assessed as cell growth inhibition measured after 7 days by WST-8 assay; format: functional; conditions: NCI-H1793, 168 h, time 7 day
recorded metric: GI50 (nM)

smiles record	GI50 (nM)
Cc1ncsc1-c1ccc([C@H](C)NC(=O)[C@@H]2C[C@@H](O)CN2C(=O)[C@@H](NC(=O)CCCCCCCCCn2cc(-c3cc(-c4ccccc4O)nnc3N)cn2)C(C)(C)C)cc1	5

1: Cc1ncsc1-c1ccc([C@H](CC[C@H](C)CCN2CCC(c3ccc4c(c3)n(C3CCCC3)c3nc(=O)c5c(Br)cccc5n43)CC2)NC(=O)[C@@H]2C[C@@H](O)CN2C(=O)[C@@H](NC(=O)C2(F)CC2)C(C)(C)C)cc1
2: Cc1ncsc1-c1ccc([C@H](C)NC(=O)[C@@H]2C[C@@H](O)CN2C(=O)[C@@H](NC(=O)[C@H]2CC[C@H](CN3CC4(CCC(n5cc(-c6cc(-c7ccccc7O)nnc6N)cn5)CC4)C3)CC2)C(C)(C)C)cc1
Sorting by GI50 in descending order, would 1 or 2 appear first? Please indicate the selected item by its label.
2

All figures here come from ChEMBL document CHEMBL5325488.
